Biological target: Tyrosine-protein phosphatase non-receptor type 2 (Homo sapiens, UniProt P17706)
Sequence (P17706 whole entry): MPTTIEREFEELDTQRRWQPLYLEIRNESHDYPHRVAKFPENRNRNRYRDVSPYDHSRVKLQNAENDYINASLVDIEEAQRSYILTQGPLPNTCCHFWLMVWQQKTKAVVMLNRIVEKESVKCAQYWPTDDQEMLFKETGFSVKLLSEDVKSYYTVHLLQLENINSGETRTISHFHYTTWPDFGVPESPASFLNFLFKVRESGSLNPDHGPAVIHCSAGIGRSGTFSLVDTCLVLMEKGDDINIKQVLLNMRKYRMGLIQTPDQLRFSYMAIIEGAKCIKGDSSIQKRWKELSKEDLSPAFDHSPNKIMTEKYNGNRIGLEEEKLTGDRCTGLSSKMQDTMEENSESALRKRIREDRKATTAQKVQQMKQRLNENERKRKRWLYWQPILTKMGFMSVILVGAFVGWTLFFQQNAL
Measured Quantity: pKi
Keep in mind that pKi stands for -log10 of concentration in molar terms.

Task item: For CCCCCNC(=O)[C@H](Cc1ccc(N(C(=O)C(=O)O)c2ccccc2C(=O)O)c(/C=C/C(N)=O)c1)NS(C)(=O)=O , what is its reported pKi?
Reply: 6.80

All values here come from BindingDB's records for doi:10.1021/jm0205696.
